methodNotes: Toxicity test
testSettings: in vivo; species and route not given
quantityName: LD50

// LD50 value for C1CCN(C2CCNCC2)CC1 : 200 to 300 mg/kg

Source of measurements: patent US5569471A
